system_under_test: Gastrin-releasing peptide receptor (Mus musculus, UniProt P21729)
Sequence (P21729 whole entry): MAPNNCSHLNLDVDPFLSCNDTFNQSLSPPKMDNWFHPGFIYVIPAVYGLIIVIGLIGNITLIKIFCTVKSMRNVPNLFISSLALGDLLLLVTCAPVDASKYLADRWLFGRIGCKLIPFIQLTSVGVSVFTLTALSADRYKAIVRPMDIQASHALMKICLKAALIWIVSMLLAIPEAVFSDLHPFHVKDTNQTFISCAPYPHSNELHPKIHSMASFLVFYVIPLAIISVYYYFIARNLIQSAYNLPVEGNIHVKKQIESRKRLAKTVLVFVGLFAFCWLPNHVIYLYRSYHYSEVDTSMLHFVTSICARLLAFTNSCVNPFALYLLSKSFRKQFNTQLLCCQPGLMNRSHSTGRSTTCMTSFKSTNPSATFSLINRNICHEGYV
assay_protocol: Inhibition against Swiss 3T3 murine fibroblast cells.
Residues, ends and D or L forms follow the SMILES beside them. *: point of attachment. X1 = CC(C)CCOC[C@H](CC(C)C)N*
measured_endpoint: IC50 (nM)

Worked cases, IC50 given:
Quick one: IC50 of CC(=O)N[C@@H](Cc1c[nH]cn1)C(=O)N[C@@H](Cc1c[nH]c2ccccc12)C(=O)N[C@@H](C)C(=O)N[C@H](C(=O)NCC(=O)N[C@@H](Cc1c[nH]cn1)C(=O)N[C@H](COCCC(C)C)CC(C)C)C(C)C (Ac-HWAVGH-X1) ?
11

// IC50 lookup, key: CSCC[C@H](NC(=O)[C@H](CC(C)C)NC(=O)[C@H](Cc1c[nH]cn1)NC(=O)CNC(=O)[C@@H](NC(=O)[C@H](C)NC(=O)[C@H](Cc1c[nH]c2ccccc12)NC(=O)[C@H](Cc1c[nH]cn1)NC(C)=O)C(C)C)C(N)=O
1.8

A: CCOC[C@H](CC(C)C)NC(=O)[C@H](Cc1c[nH]cn1)NC(=O)[C@H](C)NC(=O)[C@@H](NC(=O)[C@H](C)NC(=O)[C@H](Cc1c[nH]c2ccccc12)NC(=O)[C@H](Cc1c[nH]cn1)NC(C)=O)C(C)C
B: CCOC[C@H](CC(C)C)NC(=O)[C@H](Cc1c[nH]cn1)NC(=O)[C@@H](C)NC(=O)[C@@H](NC(=O)[C@H](C)NC(=O)[C@H](Cc1c[nH]c2ccccc12)NC(=O)[C@H](Cc1c[nH]cn1)NC(C)=O)C(C)C
Given the two records A and B , choose the one whose IC50 value is lower. Write down the label of the entry you select.
B

---

system_under_test: Gastrin-releasing peptide receptor (Mus musculus, UniProt P21729)
assay_protocol: Inhibition against Swiss 3T3 murine fibroblast cells.
Non-standard residues stand in square brackets, D forms with d. Residues, ends and D or L forms follow the SMILES beside them. *: point of attachment. X11 = CCCCC[C@@H](CC(C)C)N*; Leu(ol) = CC(C)C[C@H](N)CO; X8 = CCCC[C@@H](CC(C)C)N*; X9 = CCC[C@@H](CC(C)C)N*; X2 = CCCCC(CCCC)N*
measured_endpoint: IC50 (nM)

Some entries whose results are on file:
I am curious: what IC50 value has been reported for CC(=O)N[C@@H](Cc1c[nH]cn1)C(=O)N[C@@H](Cc1c[nH]c2ccccc12)C(=O)N[C@@H](C)C(=O)N[C@H](C(=O)NCC(=O)N[C@@H](Cc1c[nH]cn1)C(=O)N[C@H](CO)CC(C)C)C(C)C (Ac-HWAVGH[Leu(ol)]) ?
81

Given the entry CSCC[C@H](NC(=O)[C@H](CC(C)C)NC(=O)[C@H](Cc1c[nH]cn1)NC(=O)[C@H](C)NC(=O)[C@@H](NC(=O)[C@H](C)NC(=O)[C@H](Cc1c[nH]c2ccccc12)NC(=O)[C@H](Cc1c[nH]cn1)NC(C)=O)C(C)C)C(N)=O , report its measured IC50.
180

Which IC50 value is on record for CCCCC[C@@H](CC(C)C)NC(=O)[C@H](Cc1c[nH]cn1)NC(=O)CNC(=O)[C@@H](NC(=O)[C@H](C)NC(=O)[C@H](Cc1c[nH]c2ccccc12)NC(=O)[C@H](Cc1c[nH]cn1)NC(C)=O)C(C)C (Ac-HWAVGH-X11) ?
11

a: CCC[C@@H](CC(C)C)NC(=O)[C@H](Cc1c[nH]cn1)NC(=O)CNC(=O)[C@@H](NC(=O)[C@H](C)NC(=O)[C@H](Cc1c[nH]c2ccccc12)NC(=O)[C@H](Cc1c[nH]cn1)NC(C)=O)C(C)C (Ac-HWAVGH-X9)
b: CCCCC(CCCC)NC(=O)[C@H](Cc1cnc[nH]1)NC(=O)CNC(=O)[C@@H](NC(=O)[C@H](C)NC(=O)[C@H](Cc1c[nH]c2ccccc12)NC(=O)[C@H](Cc1cnc[nH]1)NC(C)=O)C(C)C (Ac-HWAVGH-X2)
Between a and b , which one has the lower reported IC50 value? Let me know the label of the one you choose.
b

I: CSCC[C@H](NC(=O)[C@H](CC(C)C)NC(=O)[C@H](Cc1c[nH]cn1)NC(=O)CNC(=O)[C@@H](NC(=O)[C@H](C)NC(=O)[C@H](Cc1c[nH]c2ccccc12)NC(=O)[C@H](Cc1c[nH]cn1)NC(=O)C(C)(C)C)C(C)C)C(N)=O
II: CCCC[C@@H](CC(C)C)NC(=O)[C@H](Cc1c[nH]cn1)NC(=O)CNC(=O)[C@@H](NC(=O)[C@H](C)NC(=O)[C@H](Cc1c[nH]c2ccccc12)NC(=O)[C@H](Cc1c[nH]cn1)NC(C)=O)C(C)C (Ac-HWAVGH-X8)
Please tell me which of the two, I or II , has the higher reported IC50 value. Mark your answer with the label of the selected entry.
I

---

assay_protocol: Compound was evaluated for mitogenic stimulation against Swiss 3T3 murine fibroblast cells.
Type: functional, cell-based, Mus musculus
Below, each entry is listed with its recorded pEC50.
Please note pEC50 is a logarithmic value: minus log10 of concentration in mol/L. Answer with that number alone.

Below, 3 compounds whose answers are already recorded.
// pEC50 lookup, key: CSCC[C@H](NC(=O)[C@H](CC(C)C)NC(=O)[C@H](Cc1c[nH]cn1)NC(=O)CNC(=O)[C@@H](NC(=O)[C@H](C)NC(=O)[C@H](Cc1c[nH]c2ccccc12)NC(=O)[C@H](Cc1c[nH]cn1)NC(C)=O)C(C)C)C(N)=O
9.70

pEC50 for CSCC[C@H](NC(=O)[C@H](CC(C)C)NC(=O)[C@H](Cc1c[nH]cn1)NC(=O)[C@@H](C)NC(=O)[C@@H](NC(=O)[C@H](C)NC(=O)[C@H](Cc1c[nH]c2ccccc12)NC(=O)[C@H](Cc1c[nH]cn1)NC(C)=O)C(C)C)C(N)=O ?
9.70

# query: pEC50 of entry CSCC[C@H](NC(=O)[C@H](CC(C)C)NC(=O)[C@H](Cc1c[nH]cn1)NC(=O)CNC(=O)[C@@H](NC(=O)[C@H](C)NC(=O)[C@H](Cc1c[nH]c2ccccc12)NC(=O)[C@H](Cc1c[nH]cn1)NC(=O)C(C)(C)C)C(C)C)C(N)=O
9.70

More entries:
Returns the measured pEC50 for the input compound. Input: CSCC[C@H](NC(=O)[C@H](CC(C)C)NC(=O)[C@H](Cc1c[nH]cn1)NC(=O)[C@H](C)NC(=O)[C@@H](NC(=O)[C@H](C)NC(=O)[C@H](Cc1c[nH]c2ccccc12)NC(=O)[C@H](Cc1c[nH]cn1)NC(C)=O)C(C)C)C(N)=O
7.70

---

system_under_test: Gastrin-releasing peptide receptor (Mus musculus, UniProt P21729)
assay_protocol: Inhibition against Swiss 3T3 murine fibroblast cells.
Residues, ends and D or L forms follow the SMILES beside them. *: point of attachment. NHCH(iBu)2 = CC(C)CC(CC(C)C)N*; X5 = CCOC[C@H](CC(C)C)N*
measured_endpoint: IC50 (nM)

A: CC(=O)N[C@@H](Cc1c[nH]cn1)C(=O)N[C@@H](Cc1c[nH]c2ccccc12)C(=O)N[C@@H](C)C(=O)N[C@H](C(=O)NCC(=O)N[C@@H](Cc1c[nH]cn1)C(=O)NC(CC(C)C)CC(C)C)C(C)C (Ac-HWAVGH-{NHCH(iBu)2})
B: CCOC[C@H](CC(C)C)NC(=O)[C@H](Cc1c[nH]cn1)NC(=O)CNC(=O)[C@@H](NC(=O)[C@H](C)NC(=O)[C@H](Cc1c[nH]c2ccccc12)NC(=O)[C@H](Cc1c[nH]cn1)NC(C)=O)C(C)C (Ac-HWAVGH-X5)
Higher IC50: A or B ? // respond with label for picked entry
B

---

system_under_test: Gastrin-releasing peptide receptor (Mus musculus, UniProt P21729)
assay_protocol: Inhibition against Swiss 3T3 murine fibroblast cells.
pIC50: −log10 of the molar value. Residues, ends and D or L forms follow the SMILES beside them. *: point of attachment. X10 = CCCOC[C@H](CC(C)C)N*; X4 = CCCCCC[C@H](CC(C)C)N*; X12 = CCCC[C@H](CC(C)C)N*; X3 = COC[C@H](CC(C)C)N*
measured_endpoint: pIC50

# pIC50 lookup, item CSCC[C@H](NC(=O)[C@H](CC(C)C)NC(=O)[C@H](Cc1c[nH]cn1)NC(=O)[C@@H](C)NC(=O)[C@@H](NC(=O)[C@H](C)NC(=O)[C@H](Cc1c[nH]c2ccccc12)NC(=O)[C@H](Cc1c[nH]cn1)NC(C)=O)C(C)C)C(N)=O
8.49

I'd like to know its pIC50. The compound in question is CCCOC[C@H](CC(C)C)NC(=O)[C@H](Cc1c[nH]cn1)NC(=O)CNC(=O)[C@@H](NC(=O)[C@H](C)NC(=O)[C@H](Cc1c[nH]c2ccccc12)NC(=O)[C@H](Cc1c[nH]cn1)NC(C)=O)C(C)C (Ac-HWAVGH-X10)
8.49

a: CCCCCC[C@H](CC(C)C)NC(=O)[C@H](Cc1c[nH]cn1)NC(=O)CNC(=O)[C@@H](NC(=O)[C@H](C)NC(=O)[C@H](Cc1c[nH]c2ccccc12)NC(=O)[C@H](Cc1c[nH]cn1)NC(C)=O)C(C)C (Ac-HWAVGH-X4)
b: COC[C@H](CC(C)C)NC(=O)[C@H](Cc1c[nH]cn1)NC(=O)CNC(=O)[C@@H](NC(=O)[C@H](C)NC(=O)[C@H](Cc1c[nH]c2ccccc12)NC(=O)[C@H](Cc1c[nH]cn1)NC(C)=O)C(C)C (Ac-HWAVGH-X3)
c: CCCC[C@H](CC(C)C)NC(=O)[C@H](Cc1cnc[nH]1)NC(=O)CNC(=O)[C@@H](NC(=O)[C@H](C)NC(=O)[C@H](Cc1c[nH]c2ccccc12)NC(=O)[C@H](Cc1cnc[nH]1)NC(C)=O)C(C)C (Ac-HWAVGH-X12)
Please list these in order of increasing pIC50. Thank you! Put the labels in the order asked and list them.
b, a, c
